The entries below are paired with their reported viability, T/C.
# Test system: 885724-159-R-J1-PDC KRAS PDC multicell spheroid viability;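 note: spheroids exposed to agents for 7 days before readout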
# test_method_notes: Anticancer human tumor 885724-159-R-J1-PDC patient-derived pancreatic adenocarcinoma cell line growth inhibition [KRAS2]
# condition_label: second compound 0.316 µM; first compound 0.1 µM; stronger effect = lower value
Entry rule: numbers only, all in %.

[in] So what's the measured viability, T/C for this one? Cn1ncnc1[C@H]1c2n[nH]c(=O)c3cc(F)cc(c23)N[C@@H]1c1ccc(F)cc1 + COc1cc2nc(C)nc(NC(C)c3cc(N)cc(C(F)(F)F)c3)c2cc1OC1CCOC1
[out] 91.3

[in] So what's the measured viability, T/C for this one? CC1COCCN1c1cc(-c2ccnn2C)c2ccnc(-c3ccn[nH]3)c2n1 (stereo unspecified) + COc1cc2nc(C)nc(NC(C)c3cc(N)cc(C(F)(F)F)c3)c2cc1OC1CCOC1
[out] 70

[in] So what's the measured viability, T/C for this one? COC(=O)c1ccc2c(C(=Nc3ccc(N(C)C(=O)CN4CCN(C)CC4)cc3)c3ccccc3)c(O)[nH]c2c1 + C=CC(=O)N1CCN(c2nc(=O)n(-c3c(C)ccnc3C(C)C)c3nc(-c4c(O)cccc4F)c(F)cc23)C(C)C1
[out] 109

[in] So what's the measured viability, T/C for this one? CCNC(=O)CC1N=C(c2ccc(Cl)cc2)c2cc(OC)ccc2-n2c(C)nnc21 (stereo unspecified) + CNCc1ccccc1-c1csc(C(C)Nc2nc(C)nc3cc(OC)c(OC)cc23)c1
[out] 113

[in] So what's the measured viability, T/C for this one? CN(C)C/C=C/C(=O)Nc1cc2c(Nc3ccc(F)c(Cl)c3)ncnc2cc1O[C@H]1CCOC1 + COc1cc2nc(C)nc(NC(C)c3cc(N)cc(C(F)(F)F)c3)c2cc1OC1CCOC1
[out] 66.7

Could you now look at the following molecule, please?
[in] So what's the measured viability, T/C for this one? COc1cc(Nc2ncc3c(n2)-c2ccc(Cl)cc2C(c2c(F)cccc2OC)=NC3)ccc1C(=O)O + CC1OCC2(CCN(c3cnc(Sc4ccnc(N)c4Cl)c(N)n3)CC2)C1N
[out] 90.7
